Every entry's value here was drawn from ChEMBL document CHEMBL1201862.

HCT-15 GI50 data

Please report the recorded GI50 for Clc1ccc(OCC2NC3CCC2CC3)cn1 (stereo not given) .
20.7 µM

Please report the recorded GI50 for COC(=O)[C@@]1(C)CCC[C@]2(C(=O)O)C3Cc4occc4[C@H](C)[C@@H]3CCC21 (stereo not given in full) .
> 10 µM

Please report the recorded GI50 for CC(C)(C)/N=C1\C(=O)C2(C)CCC1C2(C)C (stereo not given) .
> 100 µM

Please report the recorded GI50 for COC(=O)C1=C(C)NC(C)=C(C(=O)OC)C1c1ccccc1NO .
> 100 µM

Please report the recorded GI50 for CN(C)Cc1cc(/N=N/c2c(Cl)cccc2Cl)ccc1O .
> 100 µM

Please report the recorded GI50 for CN(C)/C=N/c1ccc2c3c(cccc13)-c1ccccc1-2 .
11.8 µM

Please report the recorded GI50 for COc1ccc(C(C#N)NCCCCCCNC(C#N)c2ccc(OC)cc2)cc1 (stereo not given) .
> 100 µM

Please report the recorded GI50 for Cc1cn(CCCCCCC2=NCCCN2)c(=O)[nH]c1=O .
> 100 µM

Please report the recorded GI50 for C=C1c2ccccc2N(S(=O)(=O)c2ccc(C)cc2)C12CCCCC2 .
> 100 µM

Please report the recorded GI50 for c1ccc2c3c(c(N4CCOCC4)nc2c1)CCCC3 .
35.3 µM

Next:
Please report the recorded GI50 for O=C(O)C(Cl)(c1ccccc1)c1ccccc1 .
> 100 µM

Please report the recorded GI50 for O=[N+]([O-])c1cc(CCl)ccc1CCl .
1.84 µM

Please report the recorded GI50 for O=C1CC(=O)NC(NN2C(=O)/C(=C/C(=O)c3ccco3)N=C2c2ccccc2)=N1 .
> 100 µM

Please report the recorded GI50 for O=C(O)CCSCCCN1C(=O)c2ccccc2C1=O .
> 100 µM

Please report the recorded GI50 for CC1(C)CCC[C@]2(C)[C@@H]1CC[C@@]13O[C@@H]1C1=C(CO)C(=O)OC1=C[C@@H]23 .
14.4 µM

Please report the recorded GI50 for CC(C)=CCC[C@@H](C)C1=C(O)C(=O)C(C)=C(Nc2ccccc2Cl)C1=O .
7.26 µM

Please report the recorded GI50 for COc1ccc(C(=O)/C=C/c2ccncc2)cc1OC .
15.4 µM

Please report the recorded GI50 for CCOC(=O)C1=C(C)N(NC(N)=O)C(C)(O)C12CCOC2=O (stereo not given) .
> 100 µM

---

system: SN12C; experiment: NCI tumour cell line growth inhibition, 48 h
Active and inactive are the calls of the source. No stated cut-off is given here; in the data, active = GI50 up to about 1.1 µM and inactive = higher.
readoutType: GI50

Please report the recorded GI50 for COC(=O)/C=C1/OC(c2ccccc2)=C(Br)C1=O .
37.1 µM (inactive)

Please report the recorded GI50 for Cc1cc2nc3ccc(N(C)C)cc3[s+]c2cc1N [TOLONIUM CHLORIDE] .
3.1 µM (inactive)

Please report the recorded GI50 for O=Cc1ccc2ccocc1-2 .
> 100 µM (inactive)

Please report the recorded GI50 for COC(=O)C(COC(C)=O)NC(=O)/C=C/c1ccc(O)c(OC(C)=O)c1 (centres undefined) .
> 100 µM (inactive)

Please report the recorded GI50 for CC(C)OCC(O)COc1ccc2ccc(=O)oc2c1 (centres undefined) .
> 100 µM (inactive)

Please report the recorded GI50 for Cc1ccc(S(=O)(=O)NC(=O)Nc2ccc(C(=O)O)cc2)cc1 .
> 100 µM (inactive)

Please report the recorded GI50 for N#Cc1c(-c2ccccc2)cc(-c2ccccc2)n(C2OCC(O)C(O)C2O)c1=S (centres undefined) .
> 10 µM (inactive)

Please report the recorded GI50 for COc1ccc(-c2nc(SCC(=O)N/N=C/c3ccc(O)c(OC)c3)[nH]c2-c2ccc(OC)cc2)cc1 .
19.1 µM (inactive)

We next turn to a different compound, shown below.
Please report the recorded GI50 for Cc1ccc(S(=O)(=O)c2c(N)c3nccn3c3nc4ccccc4nc23)cc1 .
> 100 µM (inactive)
